These entries and their values trace back to patent US12054447B2.

Give log10 GI50 for every item shown.
Test system: NCI-H322M
MEASUREMENT NOTES: NCI-60 panel test
Format: cell-based
ASSAY SETUP: Homo sapiens, NCI-60 5-dose study
Plainly stated, the numbers are log10 of GI50 given in nM.

Recorded results for 3 compounds are shown here.
O=C(CNC(=O)c1cccc2ccccc12)Nc1ccccc1Oc1ccc(O)cc1
3.06
O=C(CNC(=O)c1cccc2ccccc12)Nc1ccccc1Oc1ccccc1
2.80
COc1ccc(Oc2ccccc2NC(=O)CNC(=O)c2cccc3ccccc23)cc1
3.09

Batch request: log10 GI50 per item, same order as input.
1. O=C(CNC(=O)c1cccc2ccccc12)Nc1ccccc1Oc1cccc(O)c1
2. COc1cccc(Oc2ccccc2NC(=O)CNC(=O)c2cccc3ccccc23)c1

Solution:
[4.03, 3.11]
